// binding signal lookup, one value per entry
- test-system: T1, RBFOX1 RRM RbFoxmut (Fox-RRM*) (Homo sapiens, UniProt Q9NWB1 109-208, R118D;E147R;N151S;E152T)
- T1 sequence: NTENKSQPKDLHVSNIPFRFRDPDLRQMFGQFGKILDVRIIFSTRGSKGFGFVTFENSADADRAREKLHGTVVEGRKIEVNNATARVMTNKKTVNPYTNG
- assay-text: EMSA; HiTS-Eq, 1 nM pool, 10 min; buffer printed only for the single-RNA assays: 10 mM Tris pH 7.5, 150 mM NaCl, 3.4 mM EDTA, 0.001% NP-40, 30 C
- condition-context: tags: His6 N-terminal (pET28a); label: 5' 32P
In all, about 16,000 sequences were measured (“ka relative to ugcaugu”: median about 0.096, highest 2% from about 0.35 on). Shown is part of a subset that was picked to be rich in the highest values.
quantity-measured: binding signal

[[record]]
binder = "GUGCACG (DNA:RNA) RNA: GGGAGACCGGAAUUCAGAUUGUCCGUGCACGUUAAAUCCCGUCGUAGCCACCA DNA 1: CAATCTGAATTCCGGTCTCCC DNA 2: TGGTGGCTACGACGGGATT"
quantity_measured = "binding signal"
measurement = "0.66 KA relative to UGCAUGU"

[[record]]
binder = "CUAUGAG (DNA:RNA) RNA: GGGAGACCGGAAUUCAGAUUGUCCCUAUGAGUUAAAUCCCGUCGUAGCCACCA DNA 1: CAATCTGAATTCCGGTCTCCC DNA 2: TGGTGGCTACGACGGGATT"
quantity_measured = "binding signal"
measurement = "0.107 KA relative to UGCAUGU"

[[record]]
binder = "UUGCACC (DNA:RNA) RNA: GGGAGACCGGAAUUCAGAUUGUCCUUGCACCUUAAAUCCCGUCGUAGCCACCA DNA 1: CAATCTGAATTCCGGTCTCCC DNA 2: TGGTGGCTACGACGGGATT"
quantity_measured = "binding signal"
measurement = "0.181 KA relative to UGCAUGU"

[[record]]
binder = "UGAAGGC (DNA:RNA) RNA: GGGAGACCGGAAUUCAGAUUGUCCUGAAGGCUUAAAUCCCGUCGUAGCCACCA DNA 1: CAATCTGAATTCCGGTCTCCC DNA 2: TGGTGGCTACGACGGGATT"
quantity_measured = "binding signal"
measurement = "0.0677 KA relative to UGCAUGU"

[[record]]
binder = "UUGCCCG (DNA:RNA) RNA: GGGAGACCGGAAUUCAGAUUGUCCUUGCCCGUUAAAUCCCGUCGUAGCCACCA DNA 1: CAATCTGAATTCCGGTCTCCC DNA 2: TGGTGGCTACGACGGGATT"
quantity_measured = "binding signal"
measurement = "0.178 KA relative to UGCAUGU"

[[record]]
binder = "UCCCACC (DNA:RNA) RNA: GGGAGACCGGAAUUCAGAUUGUCCUCCCACCUUAAAUCCCGUCGUAGCCACCA DNA 1: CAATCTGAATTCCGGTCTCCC DNA 2: TGGTGGCTACGACGGGATT"
quantity_measured = "binding signal"
measurement = "0.0864 KA relative to UGCAUGU"

[[record]]
binder = "GUGCACC (DNA:RNA) RNA: GGGAGACCGGAAUUCAGAUUGUCCGUGCACCUUAAAUCCCGUCGUAGCCACCA DNA 1: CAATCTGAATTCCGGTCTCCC DNA 2: TGGTGGCTACGACGGGATT"
quantity_measured = "binding signal"
measurement = "0.167 KA relative to UGCAUGU"

[[record]]
binder = "ACGUGCG (DNA:RNA) RNA: GGGAGACCGGAAUUCAGAUUGUCCACGUGCGUUAAAUCCCGUCGUAGCCACCA DNA 1: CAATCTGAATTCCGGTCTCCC DNA 2: TGGTGGCTACGACGGGATT"
quantity_measured = "binding signal"
measurement = "0.182 KA relative to UGCAUGU"

[[record]]
binder = "GCGAGGG (DNA:RNA) RNA: GGGAGACCGGAAUUCAGAUUGUCCGCGAGGGUUAAAUCCCGUCGUAGCCACCA DNA 1: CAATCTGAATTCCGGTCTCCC DNA 2: TGGTGGCTACGACGGGATT"
quantity_measured = "binding signal"
measurement = "0.0739 KA relative to UGCAUGU"

[[record]]
binder = "UUGCACG (DNA:RNA) RNA: GGGAGACCGGAAUUCAGAUUGUCCUUGCACGUUAAAUCCCGUCGUAGCCACCA DNA 1: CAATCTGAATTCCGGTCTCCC DNA 2: TGGTGGCTACGACGGGATT"
quantity_measured = "binding signal"
measurement = "0.612 KA relative to UGCAUGU"

[[record]]
binder = "AUCCACG (DNA:RNA) RNA: GGGAGACCGGAAUUCAGAUUGUCCAUCCACGUUAAAUCCCGUCGUAGCCACCA DNA 1: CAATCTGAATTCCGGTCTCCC DNA 2: TGGTGGCTACGACGGGATT"
quantity_measured = "binding signal"
measurement = "0.135 KA relative to UGCAUGU"

[[record]]
binder = "CCAGGGC (DNA:RNA) RNA: GGGAGACCGGAAUUCAGAUUGUCCCCAGGGCUUAAAUCCCGUCGUAGCCACCA DNA 1: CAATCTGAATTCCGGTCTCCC DNA 2: TGGTGGCTACGACGGGATT"
quantity_measured = "binding signal"
measurement = "0.102 KA relative to UGCAUGU"

[[record]]
binder = "CGAUGAG (DNA:RNA) RNA: GGGAGACCGGAAUUCAGAUUGUCCCGAUGAGUUAAAUCCCGUCGUAGCCACCA DNA 1: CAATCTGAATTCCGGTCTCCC DNA 2: TGGTGGCTACGACGGGATT"
quantity_measured = "binding signal"
measurement = "0.133 KA relative to UGCAUGU"

[[record]]
binder = "AUGCACG (DNA:RNA) RNA: GGGAGACCGGAAUUCAGAUUGUCCAUGCACGUUAAAUCCCGUCGUAGCCACCA DNA 1: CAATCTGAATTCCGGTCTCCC DNA 2: TGGTGGCTACGACGGGATT"
quantity_measured = "binding signal"
measurement = "0.551 KA relative to UGCAUGU"

[[record]]
binder = "GUCUGGU (DNA:RNA) RNA: GGGAGACCGGAAUUCAGAUUGUCCGUCUGGUUUAAAUCCCGUCGUAGCCACCA DNA 1: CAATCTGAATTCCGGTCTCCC DNA 2: TGGTGGCTACGACGGGATT"
quantity_measured = "binding signal"
measurement = "0.192 KA relative to UGCAUGU"

